# assay_target: Ba/F3 EGFR-Del19/T790M (Homo sapiens, UniProt P00533, T790M, cells depend on it, form not given)
# Sequence (P00533 with tags, fused parts or gaps DEL746-750/T790M, form open): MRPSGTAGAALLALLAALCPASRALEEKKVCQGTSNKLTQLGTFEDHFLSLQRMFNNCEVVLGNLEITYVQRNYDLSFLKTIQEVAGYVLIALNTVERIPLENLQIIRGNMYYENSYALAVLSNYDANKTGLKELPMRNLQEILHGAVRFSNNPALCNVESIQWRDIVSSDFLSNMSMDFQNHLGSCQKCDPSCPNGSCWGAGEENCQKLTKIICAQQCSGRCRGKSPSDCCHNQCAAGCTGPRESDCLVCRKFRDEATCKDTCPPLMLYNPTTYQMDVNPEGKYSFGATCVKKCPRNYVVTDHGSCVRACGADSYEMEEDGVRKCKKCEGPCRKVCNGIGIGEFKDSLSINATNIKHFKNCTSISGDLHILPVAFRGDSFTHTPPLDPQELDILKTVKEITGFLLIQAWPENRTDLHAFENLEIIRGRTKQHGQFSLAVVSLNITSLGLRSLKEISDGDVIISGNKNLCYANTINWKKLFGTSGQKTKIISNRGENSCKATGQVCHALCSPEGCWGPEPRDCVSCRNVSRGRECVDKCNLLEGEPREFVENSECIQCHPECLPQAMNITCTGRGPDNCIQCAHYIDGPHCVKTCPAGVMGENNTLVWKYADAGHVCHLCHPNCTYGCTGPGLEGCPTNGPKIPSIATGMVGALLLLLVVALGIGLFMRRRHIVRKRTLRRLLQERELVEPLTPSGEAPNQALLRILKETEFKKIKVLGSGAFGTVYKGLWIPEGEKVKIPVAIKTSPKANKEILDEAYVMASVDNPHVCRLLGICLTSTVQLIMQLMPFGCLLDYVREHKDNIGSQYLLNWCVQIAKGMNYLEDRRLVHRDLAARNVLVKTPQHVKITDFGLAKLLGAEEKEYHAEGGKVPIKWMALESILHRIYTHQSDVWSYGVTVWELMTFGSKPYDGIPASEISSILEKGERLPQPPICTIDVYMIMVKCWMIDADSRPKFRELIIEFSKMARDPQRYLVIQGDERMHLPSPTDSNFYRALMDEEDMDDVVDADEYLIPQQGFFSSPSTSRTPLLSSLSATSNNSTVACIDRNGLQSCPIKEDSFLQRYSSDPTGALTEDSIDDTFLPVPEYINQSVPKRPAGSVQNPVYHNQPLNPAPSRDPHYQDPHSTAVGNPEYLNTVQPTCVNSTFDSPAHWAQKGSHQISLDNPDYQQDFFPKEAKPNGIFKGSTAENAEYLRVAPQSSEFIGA
# method_summary: Ba/F3 viability assay (CellTiter-Glo), DT
# Assay type: cell-based
# protocol_conditions: anti-proliferation, read-out: BaF3 DT IC50
test_readout: GI50

compound | measured
C[C@H]1CCOc2c(cnn2C)-c2nccc(n2)Nc2cc3c(cn2)c(-c2cccc(N4CC[C@H](N(C)C)C4)c2)nn31 [(167)] | < 10 nM
C[C@H]1CCOc2c(cnn2C)-c2nccc(n2)Nc2cc3c(cn2)c(-c2ccc(CN4CCN(C)CC4)cc2)nn31 [(172)] | < 10 nM
CC1CCCOc2c(cnn2C)-c2nccc(n2)Nc2cc3c(cn2)c(N2CCCC2)nn31 (stereo not shown) [(71)] | 10 to 100 nM
C[C@H]1CCOc2c(cnn2C)-c2nccc(n2)Nc2cc3c(cn2)c(-c2ccc(F)c(OCCN4CCOCC4)c2)nn31 [(154)] | 10 to 100 nM
Cc1c(-c2nn3c4cc(ncc24)Nc2ccnc(n2)-c2cnn(C)c2OCCCC3C)cnn1CCC(C)(C)O (stereo not shown) [(92)] | 10 to 100 nM
CC1CCOc2c(cnn2C)-c2nccc(n2)Nc2cc3c(cn2)c(N2CC(C(C)(C)O)C2)nn31 (stereo not shown) [(8)] | 10 to 100 nM
C[C@H]1CCOc2c(cnn2C)-c2nccc(n2)Nc2cc3c(cn2)c(-c2cccc(OCCN4CCOCC4)c2)nn31 [(145)] | < 10 nM

---

# assay_target: Ba/F3 EGFR-Del19/T790M/C797S (Homo sapiens, UniProt P00533, T790M/C797S, cells depend on it, form not given)
# Sequence (P00533 with tags, fused parts or gaps DEL746-750/T790M/C797S, form open): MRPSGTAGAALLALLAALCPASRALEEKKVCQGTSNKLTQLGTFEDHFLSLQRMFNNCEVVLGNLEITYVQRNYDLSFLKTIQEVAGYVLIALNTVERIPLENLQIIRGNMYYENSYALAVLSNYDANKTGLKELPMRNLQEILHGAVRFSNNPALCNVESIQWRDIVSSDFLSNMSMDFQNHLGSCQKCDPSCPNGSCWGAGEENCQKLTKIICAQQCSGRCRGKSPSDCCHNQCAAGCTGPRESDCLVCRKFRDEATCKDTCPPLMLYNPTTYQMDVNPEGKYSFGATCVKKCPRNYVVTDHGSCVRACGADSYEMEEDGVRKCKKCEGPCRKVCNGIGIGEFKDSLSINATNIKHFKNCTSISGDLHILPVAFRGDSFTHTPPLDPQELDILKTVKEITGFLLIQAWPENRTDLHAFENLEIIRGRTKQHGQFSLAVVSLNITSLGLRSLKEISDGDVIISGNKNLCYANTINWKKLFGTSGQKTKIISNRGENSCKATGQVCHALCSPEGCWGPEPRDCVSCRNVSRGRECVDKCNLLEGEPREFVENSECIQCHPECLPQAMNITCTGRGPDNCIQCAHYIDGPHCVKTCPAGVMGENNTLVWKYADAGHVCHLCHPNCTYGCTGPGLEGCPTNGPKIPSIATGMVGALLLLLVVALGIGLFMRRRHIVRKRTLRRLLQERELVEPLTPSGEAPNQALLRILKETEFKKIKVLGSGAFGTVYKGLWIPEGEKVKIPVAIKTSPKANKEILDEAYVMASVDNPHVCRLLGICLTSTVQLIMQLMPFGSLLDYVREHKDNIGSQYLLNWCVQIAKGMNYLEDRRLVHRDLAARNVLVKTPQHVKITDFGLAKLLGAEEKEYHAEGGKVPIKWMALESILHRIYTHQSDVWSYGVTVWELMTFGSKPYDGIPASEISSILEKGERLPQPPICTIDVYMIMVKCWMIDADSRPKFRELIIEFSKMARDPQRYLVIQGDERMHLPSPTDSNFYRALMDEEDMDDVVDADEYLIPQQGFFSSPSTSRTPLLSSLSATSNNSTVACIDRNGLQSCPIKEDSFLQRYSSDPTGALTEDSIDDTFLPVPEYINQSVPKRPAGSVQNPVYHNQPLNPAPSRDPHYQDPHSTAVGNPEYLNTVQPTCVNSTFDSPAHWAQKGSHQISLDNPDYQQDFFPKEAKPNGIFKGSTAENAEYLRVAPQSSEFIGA
# method_summary: Ba/F3 viability assay (CellTiter-Glo), DTC
# Assay type: cell-based
# protocol_conditions: anti-proliferation, read-out: BaF3 DTC IC50
Listed molecules paired with reported GI50

molecule | GI50
C[C@H]1CCOc2c(cnn2C)-c2nccc(n2)Nc2cc3c(cn2)c(-c2ccn(C)c2)nn31 | < 10 nM
CCn1cc(C(=O)N2CCN(C)CC2)cc1-c1nn2c3cc(ncc13)Nc1ccnc(n1)-c1cnn(C)c1OCCC2C (centres unmarked) | 100 to 1000 nM
C[C@H]1CCOc2c(cnn2C)-c2nccc(n2)Nc2cc3c(cn2)c(-c2ccncc2)nn31 | 10 to 100 nM
CC(C)N(C)Cc1ccc(-c2nn3c4cc(ncc24)Nc2ccnc(n2)-c2cnn(C)c2OCC[C@@H]3C)n1C | < 10 nM
C[C@H]1CCOc2c(cnn2C)-c2nccc(n2)Nc2cc3c(cn2)c(N2CCC2)nn31 | 10 to 100 nM
CC1CCCOc2c(cnn2C)-c2nccc(n2)Nc2cc3c(cn2)c(-c2cc(CN4CCN(C)CC4)nn2C)nn31 (centres unmarked) | 10 to 100 nM
C[C@H]1CCOc2c(cnn2C)-c2nccc(n2)Nc2cc3c(cn2)c(-c2cccc(N4CCC(N5CCN(C)CC5)CC4)c2)nn31 | < 10 nM
C[C@@H]1CCCOc2c(cnn2C)-c2nccc(n2)Nc2cc3c(cn2)c(N2CCC2)nn31 | 100 to 1000 nM

---

# assay_target: EGFR^L858R/T790M/C^797S (Homo sapiens, UniProt P00533, C797S/L858R/T790M)
# Sequence (P00533 25-1210 T790M/C797S/L858R): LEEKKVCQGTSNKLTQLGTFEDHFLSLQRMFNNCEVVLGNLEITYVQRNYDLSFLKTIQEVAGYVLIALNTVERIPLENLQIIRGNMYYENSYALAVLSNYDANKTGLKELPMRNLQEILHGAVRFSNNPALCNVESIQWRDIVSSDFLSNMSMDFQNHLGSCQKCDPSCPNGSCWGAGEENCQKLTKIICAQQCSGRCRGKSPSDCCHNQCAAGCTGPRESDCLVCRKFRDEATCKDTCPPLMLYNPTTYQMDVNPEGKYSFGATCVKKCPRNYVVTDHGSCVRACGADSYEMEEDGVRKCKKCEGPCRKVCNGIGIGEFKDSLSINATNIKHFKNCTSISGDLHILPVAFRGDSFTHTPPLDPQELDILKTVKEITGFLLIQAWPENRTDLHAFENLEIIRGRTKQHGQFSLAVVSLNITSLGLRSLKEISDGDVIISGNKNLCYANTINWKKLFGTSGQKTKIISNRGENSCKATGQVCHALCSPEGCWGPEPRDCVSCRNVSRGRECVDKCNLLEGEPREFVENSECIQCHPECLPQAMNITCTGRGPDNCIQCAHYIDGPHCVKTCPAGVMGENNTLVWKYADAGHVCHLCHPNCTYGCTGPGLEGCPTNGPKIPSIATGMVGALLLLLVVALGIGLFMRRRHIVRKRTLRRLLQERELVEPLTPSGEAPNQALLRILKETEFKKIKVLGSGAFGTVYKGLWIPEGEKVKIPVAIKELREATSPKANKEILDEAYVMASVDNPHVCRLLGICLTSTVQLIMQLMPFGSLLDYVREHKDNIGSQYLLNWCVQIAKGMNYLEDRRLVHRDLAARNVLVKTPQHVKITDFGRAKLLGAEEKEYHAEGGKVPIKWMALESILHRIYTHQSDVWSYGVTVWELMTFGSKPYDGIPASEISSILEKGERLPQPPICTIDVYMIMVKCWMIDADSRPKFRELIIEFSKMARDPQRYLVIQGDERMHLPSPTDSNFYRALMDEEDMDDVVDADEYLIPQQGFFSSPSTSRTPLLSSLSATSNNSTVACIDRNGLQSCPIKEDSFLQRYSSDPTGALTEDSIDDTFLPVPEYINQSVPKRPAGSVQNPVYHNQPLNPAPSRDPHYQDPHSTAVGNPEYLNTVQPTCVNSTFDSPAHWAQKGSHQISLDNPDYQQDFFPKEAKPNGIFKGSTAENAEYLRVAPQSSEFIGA
# method_summary: in vitro kinase assay (HTRF KinEASE-TK kit), LTC
# Assay type: biochemical
# protocol_conditions: kinase inhibition
Listed compounds paired with reported IC50

compound | IC50
CC1CCCOc2c(cnn2C)-c2nccc(n2)Nc2cc3c(cn2)c(-c2ccnn2C)nn31 (stereo not shown) [(75)] | < 10 nM
CCN1CCC(Oc2cc(F)cc(-c3nn4c5cc(ncc35)Nc3ccnc(n3)-c3cnn(C)c3OCC[C@@H]4C)c2)CC1 [(128)] | < 10 nM
CCN1CCc2c(cc(-c3nn4c5cc(ncc35)Nc3ccnc(n3)-c3cnn(C)c3OCC[C@@H]4C)n2C)C1C (stereo partly shown) [(161)] | < 10 nM
C[C@H]1CCOc2c(cnn2C)-c2nccc(n2)Nc2cc3c(cn2)c(-c2cnc(CN4CCN(C)CC4)s2)nn31 [(106)] | < 10 nM
CC1CCCOc2c(cnn2C)-c2nccc(n2)Nc2cc3c(cn2)c(-c2cc(CN4CCN(C)CC4)nn2C)nn31 (stereo not shown) [(84)] | < 10 nM
C[C@H]1CCOc2c(cnn2C)-c2nccc(n2)Nc2cc3c(cn2)c(-c2cccc(N4CCC(O)CC4)c2)nn31 [(111)] | < 10 nM
CCN(CC)CCOc1cc(-c2nn3c4cc(ncc24)Nc2ccnc(n2)-c2cnn(C)c2OCC[C@@H]3C)ccc1F [(149)] | < 10 nM
